Assay: Human Hepatocyte Stability (Test D)
Format: in vitro ADME
Conditions: human, cryopreserved pooled human hepatocytes (LiverPool 10-Donor), geometric mean if run multiple times
Measurement label: hepatocyte CLint at 1 µM (µL/min/1e6 cells)

Sample answers from the record:
COc1ccc(O[C@H]2CC[C@@](C)(C(=O)O)CC2)cc1C(=O)N[C@@H]1[C@H]2CC[C@H](C2)[C@@H]1C(=O)NCC1(C)CCC1 [Example 381] = 6.1
COc1cc(F)c(-c2ccc(CCC(=O)O)nn2)cc1C(=O)N[C@@H]1[C@H]2CC[C@H](C2)[C@@H]1C(=O)Nc1cccc(S(=O)(=O)C(F)(F)F)c1 [Example 245] = 13
COc1cc(F)c(-c2cnc(CCC(=O)O)cn2)cc1C(=O)N[C@@H]1[C@H]2CC[C@H](C2)[C@@H]1C(=O)Nc1cccc(S(=O)(=O)C(F)(F)F)c1 [Example 238] = 13

(1) COc1cc(F)c(-c2ccc(C(=O)O)cc2)cc1C(=O)N[C@@H]1[C@H]2CC[C@H](C2)[C@@H]1C(=O)Nc1cccc(S(=O)(=O)C(F)(F)F)c1 [Example 250]
(2) COc1cc(C)c(O[C@H]2CC[C@@](C)(C(=O)O)CC2)cc1C(=O)N[C@@H]1[C@H]2CC[C@H](C2)[C@@H]1C(=O)NCC1(C)CCC1 [Example 375]
# returns the entry with the larger hepatocyte CLint at 1 µM; inputs 1 and 2 Could you answer with the label of the item you picked?
1
